# SYSTEM NAME: T1, human LIV-1 (human, UniProt Q13433 29-755)
# T1 sequence (looked up): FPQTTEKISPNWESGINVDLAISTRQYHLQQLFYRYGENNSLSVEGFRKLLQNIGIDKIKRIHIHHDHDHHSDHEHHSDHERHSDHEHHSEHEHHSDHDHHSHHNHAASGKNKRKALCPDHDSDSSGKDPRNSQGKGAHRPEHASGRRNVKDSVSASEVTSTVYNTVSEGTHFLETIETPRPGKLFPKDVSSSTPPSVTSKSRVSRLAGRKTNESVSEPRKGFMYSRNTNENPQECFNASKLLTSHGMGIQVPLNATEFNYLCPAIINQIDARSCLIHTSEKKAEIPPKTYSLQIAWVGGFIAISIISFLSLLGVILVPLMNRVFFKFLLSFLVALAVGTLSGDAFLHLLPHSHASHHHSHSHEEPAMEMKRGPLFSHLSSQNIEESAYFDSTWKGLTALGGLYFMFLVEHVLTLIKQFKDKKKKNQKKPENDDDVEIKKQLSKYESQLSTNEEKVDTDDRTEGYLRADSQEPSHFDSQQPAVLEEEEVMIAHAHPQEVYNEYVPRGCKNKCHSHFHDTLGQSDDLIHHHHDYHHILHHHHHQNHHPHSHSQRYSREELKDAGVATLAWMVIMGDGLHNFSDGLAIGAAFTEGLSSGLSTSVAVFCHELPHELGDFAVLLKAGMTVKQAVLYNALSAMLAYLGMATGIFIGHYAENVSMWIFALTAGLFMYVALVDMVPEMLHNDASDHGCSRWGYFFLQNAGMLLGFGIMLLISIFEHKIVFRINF
# ASSAY: cell-based or functional assay
Just a reminder that ties go to not fulfilled: only Internalization Top (RFU) strictly below 500000 RFU counts as fulfilled.

Item 56B3E6 (antibody, V domains shown, Tested as chimeric antibody) VH: EVQLQQSGAELVRSGASVKLSCTASGFNIKDYYIHWVKQRPEQGLEWIGWIDPENDDTEYAPKFQGKATMTADTSSNTAYLHLSSLTSEDTAVYYCPHGGGFRVFDSWGQGTTLTVSS VL: DVLMTQTPLSLPVSLGDQASISCRSSQDIVHSNGNTYLEWYLQKPGQSPKLLIYKVSNRFSGVPDRFSGSGSGTDFTLKISRVEAEDLGVYYCFQGSHVPWTFGGGTKLEIK : Internalization Top (RFU) beneath 500000 RFU, strictly?
fulfilled

Okay, and 124H4D11 (antibody, V domains shown, Tested as chimeric antibody) VH: EVPLQQSGAELVRSGASVKLSCTASGFNIKDYYMHWVKQRPEQGLEWIGWIDPENGDTEYDPKFQGKATMTADTSSNTADLQLSSLTSEDTAVYYCNARYYAFDYWGQGTTLTVSS VL: DVLMTQTPLSLPVSLGDQASISCRSSQSIVHSNGNTYLEWYLQKPGQSPKLLIYKVSNRFSGVPDRFSGSGSGTEFTLKISRVEAEDLGVYYCFQGSQVPPTFGGGTRLEIK ?
fulfilled

Okay, and 47G1B10 (antibody, V domains shown, Tested as chimeric antibody) VH: QVQLKQSGPGLVQPSQSLSITCTVSGFSLTTYGVHWVRQSPGKGLEWLGVIWTGGTTDYNAAFISRLSISKDNSKSQVFFKMNSLQANDTAIYYCARGPSSYWGQGTLVTVSA VL: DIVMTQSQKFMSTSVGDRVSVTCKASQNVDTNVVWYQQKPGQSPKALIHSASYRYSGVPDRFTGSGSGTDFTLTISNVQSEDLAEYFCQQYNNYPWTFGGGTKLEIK ?
fulfilled

Okay, and 136F3D10C10 (antibody, V domains shown, Tested as chimeric antibody) VH: QVQLQQSGPELVKPGASVRIFCKASGYTFTSFHIHWVKQRPGQGLEWIGWIYPGNDNTDHNEKFKGKATLSADKSSSTVYMQLSSLTSEDSAVYFCGRSNYYGPLFAYWGQGTLVTVSA VL: DILMTQTPLSLPVSLGDQASISCRSSQNIVRSNGNTYLEWYLQKPGQSPKVLIYRVSNRFSGVPDRFSGSGSGTDFTLKISRVEAEDLGVYYCFQGSYVPYTFGGGTKLEIK ?
not fulfilled

meta.source: patent US20240325555A1
